Tested on: HeLa
Assay: Cytotoxicity against human HeLa cells by neutral red method
Format: functional, cell-based

| smiles-str | IC50, µM |
| --- | --- |
| COc1c([C@@H](O)CC(C)C)ccc2c1C(=O)OCc1cc(CO)cc(O)c1O2 | 6.1 |

----------
Test system: Amphibalanus amphitrite
Assay: Selectivity index, ratio of CC50 for Balanus amphitrite Darwin cyprids to EC50 for antifouling activity against larval settlements of Balanus amphitrite Darwin cyprids
Reported Ratio CC50/EC50 is given for each of the following molecules.

| molecule | Ratio CC50/EC50 |
| --- | --- |
| COc1c([C@@H](O)CC(C)C)ccc2c1C(=O)OCc1cc(C)cc(O)c1O2 [PENICILLIDE] | >50 |
| CCCCCCCCn1sc(Cl)c(Cl)c1=O | 20.3 |
| COc1c([C@@H](O)CC(C)(C)O)ccc2c1C(=O)OCc1cc(C)cc(O)c1O2 | >50 |
| COc1c([C@H](CC(C)C)OC(C)=O)ccc2c1C(=O)OCc1cc(C)cc(O)c1O2 | >50 |
| COc1c([C@@H](O)CC(C)C)ccc2c1C(=O)OCc1cc(CO)cc(O)c1O2 | >50 |
